Just for reference, PubChem BioAssay (NCI) is where these values come from.

# System: PC-3 prostate
# assayDetails: NCI-60 one-dose screen, 48 h (100 = growth as untreated, 0 = no growth, -100 = all killed)
# setupConditions: 10 µM unless noted
The panel holds about 83,000 compounds, 20% with a hit somewhere; the sample as a whole holds those more often.
valueKind: growth (%)

CC(O)(CO)c1ccccc1 (configuration not stated)    91.7
O=C(Nc1ccc(Nc2ncccn2)cc1)NC1C=c2ccccc2=CC1 (configuration not stated)    108
CCCCCN1C=C/C(=C\C(=O)N(C)c2cccc3ccccc23)c2ccccc21    94.4
COc1ccc2c(c1)OC13Oc4cc(OC)ccc4C=C1CCCC3=C2    23.6
Clc1ccc(C2CC(c3cccc(Nc4ccncc4)c3)=NN2c2ccccc2)cc1 (configuration not stated)    36
Cc1c([N+](=O)[O-])cc(C(C)(C)C)cc1[N+](=O)[O-]    95.3
Cc1n[nH]c(C)c1-c1c(C)n[nH]c1C    17.8
COc1ccc(CNCCN2C(=O)c3ccc4c5c(ccc(c35)C2=O)C(=O)N(CCNCc2ccc(OC)cc2)C4=O)cc1    -76
CCN1C(=O)N(CC)C2NC(SC)=NC21 (configuration not stated)    99.5
COc1ccc(Cn2nc(-c3ccccc3)c3c2CCc2cnoc2-3)cc1    52.9
Cn1/c(=N/NC(N)=S)ccc2ccccc21    76.7
COc1ccc(C(=O)/C=C/c2cn(Cc3ccc(Cl)cc3)c3ccccc23)cc1    61.3
Cn1ncc2c(Nc3ccccc3Cl)nc(Cl)nc21    109
CC1(C)CCCN1CCCN1c2ccccc2Sc2ccc(Cl)cc21    52.6
COc1cc2oc(-c3cccc(C(=O)Nc4ccc(Cl)cc4)c3)cc(=O)c2c(OC)c1OC    27.1
COc1ccc(-c2nc(N=Nc3c(O)[nH]c4ccccc34)nc(N3CCOCC3)c2C#N)cc1    72.7
CCOc1cc(CNc2ccc(N3CCOCC3)c(C(=O)O)c2)ccc1OC    98.9
CC(=O)c1cc2c(N)c(C(=O)Nc3cncc4ccccc34)sc2nc1C    93.8
N#CSCC1CC(O)(c2ccccc2)C(c2ccccc2)C(c2ccc(F)cc2)O1 (configuration not stated)    15.9
COc1cc(C2CC(c3cccc(Nc4ccncc4)c3)=NN2C(C)=O)cc(OC)c1OC (configuration not stated)    84.2
N/C(=N\N=C\c1cc2ccccc2[nH]1)N/N=C/c1cc2ccccc2[nH]1    89.3
COc1ccc2c(c1)c(CC(=O)NCCOCCOCC(=O)Nc1ccc(OC)c(C(N)=O)c1O)c(C)n2C(=O)c1ccc(Cl)cc1    74.6
